# assay-target: Nuclear receptor ROR-gamma (Homo sapiens)
# protocol-notes: qHTS assay to identify small molecule antagonists of the retinoid-related orphan receptor gamma (ROR-gamma) signaling pathway (AID 1159521; further: nearly all actives have a fitted effect of over 50% in size)
# measurement-context: Tet-on RORgamma CHO cells, RORE-luciferase, 16 h; series mostly up to 92.4 µM
Results filed as inconclusive are left out. Activity calls are given as the source filed them. The call rests on the fitted dose curve; in most records, active means well fitted inhibition curve with a large enough effect in the repeat runs; inconclusive means weak or mixed curves, or effect the other way; inactive means no such curve, though single readings can be large or run the other way.
Return exactly one item of active, inactive

| molecule | assay-target | class-assignment |
| --- | --- | --- |
| CC1CCc2cc(F)cc3c(=O)c(C(=O)O)cn1c23 (centres undefined) | Nuclear receptor ROR-gamma (Homo sapiens) | inactive |
| Cc1nc2ccccc2n1Cc1ccc(Cl)cc1 | Nuclear receptor ROR-gamma (Homo sapiens) | active |
| O=C=NC1CCC(CC2CCC(N=C=O)CC2)CC1 (centres undefined) | Nuclear receptor ROR-gamma (Homo sapiens) | inactive |
| Cc1cc(NC(=O)C(=O)O)cc(C)c1Oc1ccc(O)c2c1CCC2 | Nuclear receptor ROR-gamma (Homo sapiens) | inactive |
| O=S(=O)(O)c1ccc(O)c2ncccc12 | Nuclear receptor ROR-gamma (Homo sapiens) | inactive |
| N#CCCNCCC#N | Nuclear receptor ROR-gamma (Homo sapiens) | inactive |
| c1ccc(-c2nc[nH]c2-c2ccccc2)cc1 | Nuclear receptor ROR-gamma (Homo sapiens) | inactive |
| Cc1occc1S | Nuclear receptor ROR-gamma (Homo sapiens) | inactive |

Task: How was `CCCCCCCCCC=O` classified in this test?
Output: inactive

Task: How was `Cc1c(Cn2ccnc2)c2ccccc2n1CCC(=O)O` classified in this test?
Output: inactive

Task: How was `CC(C)(C)c1cc(CO)cc(C(C)(C)C)c1O` classified in this test?
Output: inactive

Task: How was `COc1ccccc1OC(=O)Oc1ccccc1OC` classified in this test?
Output: inactive

Task: How was `NCCCN(CCO)CCO` classified in this test?
Output: inactive

Task: How was `N#CCc1cccc(C(F)(F)F)c1` classified in this test?
Output: inactive

* * *

# protocol-notes: qHTS assay for small molecule activators of the heat shock response signaling pathway - cell viability counter screen (AID 743209); further: nearly all actives have a fitted effect of over 50% in size
# measurement-context: HSE-bla HeLa viability, CellTiter-Glo luminescence, 5 h; series mostly up to 62.6 µM
Inconclusive results are not listed. The source made the active and inactive calls. Calls come from the whole dose curve; as a rule, active = well fitted cell-killing curve with a large enough effect in the repeat runs; inconclusive = weak or mixed curves, or effect the other way; inactive = no such curve, though single readings can be large or run the other way.
Return exactly one item of 1.0 (active), 0.0 (inactive)

Below, 5 compounds whose answers are already recorded.
| compound | class-assignment |
| --- | --- |
| COc1cc(C(C)(C)C)c(O)c(C(C)(C)C)c1 | 0.0 |
| NC1CCN(c2nc3c(cc2F)c(=O)c(C(=O)O)cn3-c2ccc(F)cc2F)C1 (configuration not stated) | 0.0 |
| CC(Cc1cccc(C(F)(F)F)c1)NCCOC(=O)c1ccccc1 (configuration not stated) | 1.0 |
| CCCCC(CC)COCCCN (configuration not stated) | 0.0 |
| O=C(O)/C=C/c1cnc[nH]1 | 0.0 |

Task: How was `CC(C)(C)c1cc(CO)cc(C(C)(C)C)c1O` classified in this test?
Output: 0.0

Task: How was `O=C1[C@H](CC[C@H](O)c2ccc(F)cc2)[C@@H](c2ccc(O)cc2)N1c1ccc(F)cc1` classified in this test?
Output: 0.0

Task: How was `Cn1c(N)nc2nc[nH]c2c1=O` classified in this test?
Output: 0.0

* * *

# protocol-notes: Caspase-3/7 induction in CHO-K1 cells by small molecules, qHTS assay (AID 1346980); further: on the % scale 0 is the no-effect control and ±100 the full control effect; nearly all actives have a fitted effect of over 15% in size
# measurement-context: CHO-K1 caspase-3/7 induction, Caspase-Glo luminescence, 17 h; series mostly up to 92.4 µM
Active and inactive are the calls of the source. Calls follow the shape of the dose curve; as a rule, active = well fitted activation curve with a large enough effect in the repeat runs; inconclusive = weak or mixed curves; inactive = flat fitted curve, though single readings scatter.
readout-label: caspase-3/7 activation

| compound | caspase-3/7 activation |
| --- | --- |
| CNS(=O)(=O)Cc1ccc2[nH]cc(CCN(C)C)c2c1 | inactive |
| CC1=CC(=O)/C(=C(/C)O)C(=O)O1 | inactive |
| C[C@@H](C1=C(CCN(C)C)Cc2ccccc21)c1ccccn1 | inactive |
| CCCCCCCCCC=O | inactive |

Please give caspase-3/7 activation, item by item, for the list that follows.
1. CC(C)CCCCCCOC(=O)c1ccc(C(=O)OCCCCCCC(C)C)c(C(=O)OCCCCCCC(C)C)c1
2. Cc1ncsc1CCO
3. CCCCCCCCCCCCCCCCCBr
4. C#CCOC(=O)[C@@H](C)Oc1ccc(Oc2ncc(Cl)cc2F)cc1
5. CCOc1ccc(NC(=O)CC(C)=O)cc1
6. CC(C)c1ccc2c(C(C)C)cc(C(C)C)c(S(=O)(=O)O)c2c1
7. N=C(N=C(N)N)N1CCOCC1
8. CCCCCCCCCCCCCCCBr

Output:
1: inactive; 2: inactive; 3: -0.258% [at 19 µM] (inactive); 4: inactive; 5: inactive; 6: inactive; 7: inactive; 8: inactive

Please give caspase-3/7 activation, item by item, for the list that follows.
1. O=C(O)[C@@H]1[C@H]2C[C@H]3c4[nH]c5ccccc5c4CCN3C[C@@H]2CC[C@@H]1O
2. CC(C)c1cccc(C(C)C)c1NC(=O)NS(=O)(=O)c1cc(C(C)(C)O)co1
3. C1=Cc2ccccc2C1
4. CC(C)(C)c1ccc(S)cc1
5. CC1CCc2cc(F)cc3c(=O)c(C(=O)O)cn1c23 (stereo unspecified)
6. CN(C)CCCOc1nn(Cc2ccccc2)c2ccccc12
7. N[C@H]1C(O)O[C@H](CO)[C@H](O)[C@@H]1O (stereo partly specified)

Output:
inactive
inactive
inactive
inactive
inactive
inactive
inactive

* * *

# protocol-notes: qHTS assay to identify small molecule agonists of the RXR signaling pathway - cell viability counter screen (AID 1159529);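 further: HEK 293T cells carrying an RXR-alpha UAS beta-lactamase reporter; on the % scale 0 is the no-effect control and ±100 the full control effect; nearly all actives have a fitted effect of over 50% in size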
# measurement-context: RXR-alpha-bla HEK293T viability, CellTiter-Glo, 16 h; series mostly up to 76.8 µM
Results filed as inconclusive are left out. Activity calls are given as the source filed them. Calls come from the whole dose curve; as a rule, active = well fitted cell-killing curve with a large enough effect in the repeat runs; inconclusive = weak or mixed curves, or effect the other way; inactive = no such curve, though single readings can be large or run the other way.
Return exactly one item of active, inactive

| molecule | class-assignment |
| --- | --- |
| CC(C(=O)O)c1ccc(-c2ccccc2)c(F)c1 (stereo unspecified) | inactive |
| CN(C(=O)CCCOc1ccc2[nH]c(=O)ccc2c1)C1CCCCC1 | inactive |
| CC/C(=C\C(=N/O)C(N)=O)C(C)[N+](=O)[O-] (stereo unspecified) | inactive |

Task: How was `S=C(S)NCCNC(=S)S` classified in this test?
Output: inactive

Task: How was `O=C(O)c1cn(C2CC2)c2cc(Cl)c(F)cc2c1=O` classified in this test?
Output: inactive

* * *

# protocol-notes: qHTS assay to test for compound auto fluorescence at 590 nm (red) in HepG2 cells (AID 720674); further: on the % scale 0 is the no-effect control and ±100 the full control effect
# measurement-context: HepG2 autofluorescence, red 540/590 nm, 1 h; series mostly up to 91.3 µM
Calls of active or inactive are those of the source. Calls follow the shape of the dose curve; as a rule, active = well fitted curve in the direction sought with a large enough effect in the repeat runs; inconclusive = weak or mixed curves; inactive = flat fitted curve, though single readings scatter.
readout-label: fluorescence, relative to Rose Bengal

Check out these entries, answers already filled in.
| compound | readout-label | recorded-measurement |
| --- | --- | --- |
| O=C(Nc1ccccc1)OCC(CN1CCCCC1)OC(=O)Nc1ccccc1 (stereo not given) | fluorescence, relative to Rose Bengal | -0.654% [at 18.6 µM] (inactive) |
| CCOc1ccc2[nH]cc(C(=O)NCc3ccccc3)c(=O)c2n1 | fluorescence, relative to Rose Bengal | inactive |
| O=S1(=O)N=C(O)c2ccccc21 | fluorescence, relative to Rose Bengal | inactive |
| NC(N)=NN=C(/C=C/c1ccc([N+](=O)[O-])o1)/C=C/c1ccc([N+](=O)[O-])o1 | fluorescence, relative to Rose Bengal | inactive |

Attention now shifts to the item below.
For this compound ( `CC(C)(C)c1cc(CCC(=O)OCC(COC(=O)CCc2cc(C(C)(C)C)c(O)c(C(C)(C)C)c2)(COC(=O)CCc2cc(C(C)(C)C)c(O)c(C(C)(C)C)c2)COC(=O)CCc2cc(C(C)(C)C)c(O)c(C(C)(C)C)c2)cc(C(C)(C)C)c1O` ), measured fluorescence, relative to Rose Bengal is inactive

* * *

# protocol-notes: qHTS assay to identify small molecule antagonists of the sonic hedgehog signaling (Shh) pathway - cell viability counter screen (AID 1259367); further: nearly all actives have a fitted effect of over 55% in size
# measurement-context: NIH/3T3 Gli1-Luc viability, CellTiter-Fluor, 24 h; series mostly up to 92.4 µM
Records with an inconclusive call do not appear. Calls of active or inactive are those of the source. The call rests on the fitted dose curve; in most records, active means well fitted cell-killing curve with a large enough effect in the repeat runs; inconclusive means weak or mixed curves, or effect the other way; inactive means no such curve, though single readings can be large or run the other way.
Return exactly one item of active, inactive

| compound | class-assignment |
| --- | --- |
| Nc1ccc(C(=O)N2CC3CC(CN(Cc4ccccc4)C3)C2)cc1 | inactive |
| CCCc1ccccc1 | inactive |
| Cn1sccc1=O | active |

Task: How was `CC1(C)CCC(C)(C)c2cc(NC(=O)c3ccc(C(=O)O)cc3)ccc21` classified in this test?
Output: inactive

Task: How was `CN(C(=O)CCCOc1ccc2[nH]c(=O)ccc2c1)C1CCCCC1` classified in this test?
Output: inactive

* * *

# protocol-notes: qHTS RealTime-Glo MT Cell Viability Assay in HEK293 cells - 40 hour (AID 1224874); further: on the % scale 0 is the no-effect control and ±100 the full control effect; nearly all actives have a fitted effect of over 50% in size
# measurement-context: RealTime-Glo luminescence; active compounds read low
Records with an inconclusive call do not appear.
readout-label: max response (%)
Answers are plain numbers, in %.

| compound | max response [%] |
| --- | --- |
| CC(CN)CCCN (stereo not given) | 1.48 |

Please give max response, item by item, for the list that follows.
1. CCCCCOC(=O)COc1cc(N2C(=O)C3=C(CCCC3)C2=O)c(F)cc1Cl
2. CCCCCCCCCO
3. C1CCC2OC2C1 (stereo not given)
4. CC(O)C1CCCCC1 (stereo not given)
5. Cn1c(=O)c2c(ncn2CC(O)CO)n(C)c1=O (stereo not given)
6. S=C(S)NCCNC(=S)S
7. CCCCCCCCCC(=O)OCC

Output:
4.37
18.9
4.85
3.26
2.79
-4.71
-6.56
